Attribution: the RNAGym collection of RNA variant scans (doi:10.7554/elife.90254)

B1: OR4K15 (parent)
chain: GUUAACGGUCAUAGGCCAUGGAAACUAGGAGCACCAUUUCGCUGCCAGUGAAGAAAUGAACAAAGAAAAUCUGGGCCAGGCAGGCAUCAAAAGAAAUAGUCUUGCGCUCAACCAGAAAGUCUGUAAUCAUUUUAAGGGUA

- Variants of: B1
- PROCEDURE DETAILS: self-cleavage, relative activity (ratio to wild type); higher = more cleavage; in vitro, sequencing; the parent is a self-cleaving ribozyme
This section presents variants with their documented self-cleavage values.
Just the number, please.

Some solved cases for reference:
GUUAACGGUCAUAGGCCAUGGAAACUAGGUGCACCAUUUCGCUGCCAGUGAAGAAAUGAACAAAGAAAAUCUGGGCCAGGCAGGCAUCAAAAGAAAUAGUCUUGCGAUCAACCAGAAAGUCUGUAAUCAUUUUAAGGGUA [A30U C107A] :: 0.01
GUUAACGGUCAUAGGCCAUGGAAACUAGGAGCACCAUUUCGCUGCCAGUGAAGAAAUGAACAAAGAAGAUCUGGGCCAGGCAGGCAUCAAAAGAAAUAAUCUUGCGCUCAACCAGAAAGUCUGUAAUCAUUUUAAGGGUA [A68G G99A] :: 0.57
GUUAGCGGUCAUAGGCCAUGGAAACUAGGAGCACCAUUUCGCUGCCAGUGAAGAAAUGAACAAAGAAAAUCUGGGCCAGGCAGGCAUCAAAAGAAAUAGUCUUGCGCUCAACCAGAAAGUAUGUAAUCAUUUUAAGGGUA [A5G C121A] :: 1.89

Problem: Please indicate self-cleavage recorded for GUUAACGGUCAUAGGCCAUGGAAAUUAGGAGCACCAUUUCGCUGCCAGUGAAGAAAUGAACAAAGAAAAUCUGGGCCAGGCAGGCAUCAAAAGAAAUAGUCUUGCGCUCAACCAGAAAGUCUGUAAUCGUUUUAAGGGUA [C25U A129G]
Solution: 1.37

Problem: Please indicate self-cleavage recorded for GUUAACGGCCAUAGGCCAUGGAAACUAGGAGCACCAUUUCGCUGCCAGUGAAGAAAUGAACAAAGAAAAUCUGGGCCAGGCAGGCAUCAUAAGAAAUAGUCUUGCGCUCAACCAGAAAGUCUGUAAUCAUUUUAAGGGUA [U9C A90U]
Solution: 2.21
